The measured values listed here are drawn from patent US20250361305A1.

- target_desc: T1, recombinant extracellular domain of PD-L1 with C-terminal FLAG-tag (human, UniProt Q9NZQ7 19-238)
- T1 construct: extracellular domain; The sentence itself names no species; Immobilised through the M2 anti-FLAG antibody; not shown: C-terminal FLAG-tag
- assay_notes: plate binding assay, VHH against hPD-1-hFc binding to immobilised PD-L1 ECD-FLAG
Label class 1 when IC50 is strictly below 9 ng/mL; at or above that, label class 0.

binder	class
2LIG176 VHH-(His)6 (pHEN6C-PelB-PD-L1 VHH-(His)6) (VHH) VHH: QVQLQESGGGLVQAGGSLRLSCAASESIFSIEAMGWYRQAPGKQRELVAAIFGGGFTNYADSVKGRFTISRDNANRTVYLQMNSLKPEDTAVYYCNADLVSGSSRLYDYWGQGTQVTVSS	class 1
2LIG97 VHH-(His)6 (pHEN6C-PelB-PD-L1 VHH-(His)6) (VHH) VHH: QVQLQESGGGLVQAGESLRLSCTASGTIFSINRMDWFRQAPGKQRELVALITSDGTPTYADSAKGRFTISRDNTKKTVSLQMNSLKPEDTAVYYCHVSSGVYNYWGQGTQVTVSS	class 1
2LIG3 VHH-(His)6 (pHEN6C-PelB-PD-L1 VHH-(His)6) (VHH) VHH: QVQLQESGGGLVQAGGSLRLSCTASGTIFSINHMDWFRQAPGKQRELVALITSDGFPTYADSAKGRFTISRDNTKKTVSLQMNSLKPEDTAVYYCHVSSGVYNYWGQGTQVTVSS	class 0

Here is the next item to consider.
Query block: Criterion: IC50 strictly below 9 ng/mL. Is it met by 2LIG27 VHH-(His)6 (pHEN6C-PelB-PD-L1 VHH-(His)6) (VHH) VHH: QVQLQESGGGVVQAGGSLRLSCTASGTIFSINRMDWFRQAPGKQRELVALITSDGTPTYADSAKGRFTISRDNTKKTVSLQMNSLKPEDTAVYYCHVSSGVYNYWGQGTQVTVSS ?
Result block: class 0
